# TARGET_OR_SYSTEM: huCTLA4 (Homo sapiens, UniProt P16410)
# Sequence (P16410 36-223): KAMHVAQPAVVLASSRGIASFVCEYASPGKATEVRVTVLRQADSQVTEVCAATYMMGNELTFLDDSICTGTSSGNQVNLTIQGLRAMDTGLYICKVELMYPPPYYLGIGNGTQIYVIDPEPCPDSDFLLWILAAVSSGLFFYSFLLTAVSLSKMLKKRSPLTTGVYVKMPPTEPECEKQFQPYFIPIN
# PROTOCOL_SUMMARY: Flow binding to CHO cells stably expressing CTLA4
# Set-up: huCTLA4 and huPD-L1, full-length mammalian surface expression constructs were generated; expressed in transfected cells; host or cells: CHO cells, lentiviral transduction, sorted to >98% purity
# CONDITIONS: Table E4; 33.3 nM variant CD80 IgV-Fc; CHO cells stably expressing CTLA4
# CTLA4 MFI at 33.3 nM per entry

>  <MOLECULE>
E35D/L85Q/K93I/E95V/L97Q (protein) VIHVTKEVKEVATLSCGHNVSVEELAQTRIYWQKDKKMVLTMMSGDMNIWPEYKNRTIFDITNNLSIVILALRPSDEGTYECVVQKYEKDAFTRVHQAEVTLSVKAD

>  <DATA_VALUE>
246401

$$$$
>  <MOLECULE>
V22L/Q27H/E35D/M47I/A71G (protein, CD80 v274 ECD) VIHVTKEVKEVATLSCGHNVSLEELAHTRIYWQKDKKMVLTMMSGDINIWPEYKNRTIFDITNNLSIVILGLRPSDEGTYECVVLKYEKDAFKREHLAEVTLSVKADFPTPSISDFETPTSNIRRIICSTSGGFPEPHLSWLENGEELNAINTTVSQDPETELYAVSSKLDFNMTTNHSFMCLIKYGHLRVNQTFNWNTTKQEHFPDN

>  <DATA_VALUE>
151600

$$$$

Now look at this one.
Qu. If you can, please state the reported CTLA4 MFI at 33.3 nM value of E35D/M47V/N48KN68M/K89N (protein) VIHVTKEVKEVATLSCGHNVSVEELAQTRIYWQKDKKMVLTMMSGDVKIWPEYKNRTIFDITNNLSIMILALRPSDEGTYECVVLKYENDAFKREHLAEVTLSVKAD .
Ans. 807
